tested on: involucrin (IVL); test: 3D micro-epidermis model (EpiScreen): involucrin immunostaining; format: cell-based, human; details: 10 μM; supplementary data; two runs; Tox = toxic
ASSAY_READOUT: IVL 10 μM (%)
A number alone suffices; assume %.

q: State its IVL 10 μM: Cc1ccnc2c1NC(=O)c1cccnc1N2C1CC1 [Nevirapine]
a: 20

q: State its IVL 10 μM: CC#CC(=O)N1CCC[C@H]1c1nc(-c2ccc(C(=O)Nc3ccccn3)cc2)c2c(N)nccn12 [Acalabrutinib]
a: 25

q: State its IVL 10 μM: CCCS(=O)(=O)Nc1ccc(F)c(C(=O)c2c[nH]c3ncc(-c4ccc(Cl)cc4)cc23)c1F [Vemurafenib]
a: −40

q: State its IVL 10 μM: CCN(CC)CCNC(=O)c1c(C)[nH]c(/C=C2\C(=O)Nc3ccc(F)cc32)c1C [Sunitinib]
a: 24

q: State its IVL 10 μM: CNC(=O)c1ccc(N2C(=S)N(c3ccc(C#N)c(C(F)(F)F)c3)C(=O)C2(C)C)cc1F [Enzalutamide]
a: 2
